# subjectOfTest: rPVL (Lacrymaria velutina (Psathyrella velutina), UniProt Q309D1)
# runDescription: Titration microcalorimetry (ITC), rPVL in solution
# Format: binding
# setupConditions: 25°C
Threshold 9 kcal/mol: ITC -∆H strictly smaller gives yes, otherwise no.

[
  {
    "compound": "CC(=O)N[C@@H]1[C@@H](O)[C@H](O[C@@H]2O[C@H](CO)[C@@H](O[C@@H]3O[C@H](CO[C@H]4O[C@H](CO)[C@@H](O)[C@H](O)[C@@H]4O[C@@H]4O[C@H](CO)[C@@H](O)[C@H](O)[C@H]4NC(C)=O)[C@@H](O)[C@H](O[C@H]4O[C@H](CO)[C@@H](O)[C@H](O)[C@@H]4O[C@@H]4O[C@H](CO)[C@@H](O)[C@H](O)[C@H]4NC(C)=O)[C@@H]3O)[C@H](O)[C@H]2NC(C)=O)[C@@H](CO)O[C@H]1N=[N+]=[N-]",
    "assignedClass": "yes"
  },
  {
    "compound": "CC(=O)N[C@H]1[C@H](O[C@H]2[C@@H](O)[C@@H](CO)O[C@@H](O[C@H]3[C@H](O)[C@@H](O)C(O)O[C@@H]3CO)[C@@H]2O)O[C@H](CO)[C@@H](O)[C@@H]1O (some centres unmarked)",
    "assignedClass": "no"
  },
  {
    "compound": "CC(=O)N[C@@H]1[C@@H](O)[C@H](O)[C@@H](CO)O[C@H]1O",
    "assignedClass": "no"
  },
  {
    "compound": "CC(=O)N[C@H]1[C@H](O[C@H]2[C@@H](O)[C@@H](CO)OC(O)[C@@H]2O)O[C@H](CO)[C@@H](O)[C@@H]1O (some centres unmarked)",
    "assignedClass": "no"
  }
]

---

# subjectOfTest: rPVL (Lacrymaria velutina (Psathyrella velutina))
# runDescription: Titration microcalorimetry (ITC), rPVL in solution
# Format: binding
# setupConditions: 25°C, rPVL in solution
pKd: −log10 of the molar value.
measurementType: pKd

[
  {
    "compound": "CC(=O)N[C@@H]1[C@@H](O)[C@H](O)[C@@H](CO)O[C@H]1O [GlcNAc, N-acetylglucosamine]",
    "measuredResult": 3.91
  },
  {
    "compound": "CC(=O)N[C@H]1[C@H](O[C@H]2[C@@H](O)[C@@H](CO)O[C@@H](O[C@H]3[C@H](O)[C@@H](O)C(O)O[C@@H]3CO)[C@@H]2O)O[C@H](CO)[C@@H](O)[C@@H]1O (stereo partly shown) [GlcNAcβ1-3Galβ1-4Glc (LNT2), GlcNAcβ1-3Galβ1-4Glc]",
    "measuredResult": 3.97
  },
  {
    "compound": "CC(=O)N[C@H]1[C@H](O[C@H]2[C@@H](O)[C@@H](CO)OC(O)[C@@H]2O)O[C@H](CO)[C@@H](O)[C@@H]1O (stereo partly shown) [GlcNAcβ1-3Gal]",
    "measuredResult": 3.96
  },
  {
    "compound": "CC(=O)N[C@H]1[C@H](O[C@H]2[C@H](O)[C@@H](NC(C)=O)C(O)O[C@@H]2CO)O[C@H](CO)[C@@H](O)[C@@H]1O (stereo partly shown) [GlcNAcβ1-4GlcNAc]",
    "measuredResult": 3.91
  }
]

---

# subjectOfTest: UniProt Q309D1
# runDescription: Titration microcalorimetry (ITC), rPVL in solution
# Type: binding
# setupConditions: 25°C
Listed next: entries and their corresponding ITC T∆S.
measurementType: ITC T∆S (kcal/mol)

[
  {
    "molecule": "CC(=O)N[C@H]1[C@H](O[C@H]2[C@@H](O)[C@@H](CO)OC(O)[C@@H]2O)O[C@H](CO)[C@@H](O)[C@@H]1O (some centres unmarked)",
    "measuredResult": -4.66
  },
  {
    "molecule": "CC(=O)N[C@@H]1[C@@H](O)[C@H](O)[C@@H](CO)O[C@H]1O",
    "measuredResult": -4.3
  },
  {
    "molecule": "CC(=O)N[C@H]1[C@H](O[C@H]2[C@@H](O)[C@@H](CO)O[C@@H](O[C@H]3[C@H](O)[C@@H](O)C(O)O[C@@H]3CO)[C@@H]2O)O[C@H](CO)[C@@H](O)[C@@H]1O (some centres unmarked)",
    "measuredResult": -4.57
  },
  {
    "molecule": "CC(=O)N[C@@H]1[C@@H](O)[C@H](O[C@@H]2O[C@H](CO)[C@@H](O[C@@H]3O[C@H](CO[C@H]4O[C@H](CO)[C@@H](O)[C@H](O)[C@@H]4O[C@@H]4O[C@H](CO)[C@@H](O)[C@H](O)[C@H]4NC(C)=O)[C@@H](O)[C@H](O[C@H]4O[C@H](CO)[C@@H](O)[C@H](O)[C@@H]4O[C@@H]4O[C@H](CO)[C@@H](O)[C@H](O)[C@H]4NC(C)=O)[C@@H]3O)[C@H](O)[C@H]2NC(C)=O)[C@@H](CO)O[C@H]1N=[N+]=[N-]",
    "measuredResult": 2.82
  },
  {
    "molecule": "CC(=O)N[C@H]1[C@H](O[C@H]2[C@H](O)[C@@H](NC(C)=O)C(O)O[C@@H]2CO)O[C@H](CO)[C@@H](O)[C@@H]1O (some centres unmarked)",
    "measuredResult": -3.49
  }
]

---

# subjectOfTest: rPVL (Lacrymaria velutina (Psathyrella velutina))
# Sequence (Q309D1 1-395): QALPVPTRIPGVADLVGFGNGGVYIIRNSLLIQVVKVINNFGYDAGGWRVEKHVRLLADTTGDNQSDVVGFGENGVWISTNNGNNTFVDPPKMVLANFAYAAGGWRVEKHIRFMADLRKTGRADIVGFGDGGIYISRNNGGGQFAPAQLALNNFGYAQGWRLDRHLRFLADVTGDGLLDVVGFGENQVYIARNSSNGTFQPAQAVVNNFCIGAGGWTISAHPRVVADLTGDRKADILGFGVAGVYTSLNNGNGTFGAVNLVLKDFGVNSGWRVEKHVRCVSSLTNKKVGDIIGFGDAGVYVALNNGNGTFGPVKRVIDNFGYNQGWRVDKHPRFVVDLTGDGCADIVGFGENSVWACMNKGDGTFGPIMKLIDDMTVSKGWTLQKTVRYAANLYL
# runDescription: Surface plasmon resonance, oligosaccharides injected over rPVL-coated CM5 chip
# Type: binding
# setupConditions: 25°C, rPVL immobilized on chip; read-out: SPR Kd
pKd: −log10 of the molar value.

[
  {
    "compound": "CC(=O)N[C@@H]1[C@@H](O)[C@H](O[C@@H]2O[C@H](CO)[C@@H](O[C@@H]3O[C@H](CO[C@H]4O[C@H](CO)[C@@H](O)[C@H](O)[C@@H]4O[C@@H]4O[C@H](CO)[C@@H](O)[C@H](O)[C@H]4NC(C)=O)[C@@H](O)[C@H](O[C@H]4O[C@H](CO)[C@@H](O)[C@H](O)[C@@H]4O[C@@H]4O[C@H](CO)[C@@H](O)[C@H](O)[C@H]4NC(C)=O)[C@@H]3O)[C@H](O)[C@H]2NC(C)=O)[C@@H](CO)O[C@H]1N=[N+]=[N-]",
    "subjectOfTest": "rPVL (Lacrymaria velutina (Psathyrella velutina))",
    "pKd": 3.75
  },
  {
    "compound": "CC(=O)N[C@H]1[C@H](O[C@H]2[C@H](O)[C@@H](NC(C)=O)C(O)O[C@@H]2CO)O[C@H](CO)[C@@H](O)[C@@H]1O (stereo partly drawn)",
    "subjectOfTest": "rPVL (Lacrymaria velutina (Psathyrella velutina))",
    "pKd": 3.69
  },
  {
    "compound": "CC(=O)N[C@H]1[C@H](O[C@H]2[C@H](O)[C@@H](NC(C)=O)[C@H](O[C@H]3[C@H](O)[C@@H](NC(C)=O)C(O)O[C@@H]3CO)O[C@@H]2CO)O[C@H](CO)[C@@H](O[C@@H]2O[C@H](CO)[C@@H](O[C@@H]3O[C@H](CO)[C@@H](O)[C@H](O)[C@H]3NC(C)=O)[C@H](O)[C@H]2NC(C)=O)[C@@H]1O (stereo partly drawn)",
    "subjectOfTest": "rPVL (Lacrymaria velutina (Psathyrella velutina))",
    "pKd": 3.45
  },
  {
    "compound": "CC(=O)N[C@@H]1[C@@H](O)[C@H](O)[C@@H](CO)O[C@H]1O",
    "subjectOfTest": "rPVL (Lacrymaria velutina (Psathyrella velutina))",
    "pKd": 3.88
  },
  {
    "compound": "CC(=O)N[C@H]1[C@H](O[C@H]2[C@@H](O)[C@@H](CO)OC(O)[C@@H]2O)O[C@H](CO)[C@@H](O)[C@@H]1O (stereo partly drawn)",
    "subjectOfTest": "rPVL (Lacrymaria velutina (Psathyrella velutina))",
    "pKd": 3.99
  },
  {
    "compound": "CC(=O)N[C@H]1[C@H](O[C@H]2[C@@H](O)[C@@H](CO)O[C@@H](O[C@H]3[C@H](O)[C@@H](O)C(O)O[C@@H]3CO)[C@@H]2O)O[C@H](CO)[C@@H](O)[C@@H]1O (stereo partly drawn)",
    "subjectOfTest": "rPVL (Lacrymaria velutina (Psathyrella velutina))",
    "pKd": 4.15
  }
]
